measured-on: T1, GLP-1R in the INS1e assay (UniProt P32301 22-463, limits assumed)
T1 sequence (looked up): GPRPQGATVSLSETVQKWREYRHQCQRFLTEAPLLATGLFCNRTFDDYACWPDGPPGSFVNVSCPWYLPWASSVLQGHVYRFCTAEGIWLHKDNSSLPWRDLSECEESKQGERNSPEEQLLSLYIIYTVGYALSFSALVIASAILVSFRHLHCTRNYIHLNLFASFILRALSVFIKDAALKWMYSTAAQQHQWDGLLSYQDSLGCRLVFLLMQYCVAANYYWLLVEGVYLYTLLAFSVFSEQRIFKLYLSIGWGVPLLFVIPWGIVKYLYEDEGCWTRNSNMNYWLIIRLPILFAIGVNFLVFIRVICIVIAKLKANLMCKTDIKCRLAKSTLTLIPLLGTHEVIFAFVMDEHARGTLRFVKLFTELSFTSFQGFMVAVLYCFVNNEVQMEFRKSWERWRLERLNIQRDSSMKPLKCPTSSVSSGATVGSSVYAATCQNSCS
test-description: cell-based or functional assay
Starred links: 1 amine or outer side, 2 acyl side, 3 side chain; linkers in the order of their positions; H or OH if unused. Non-standard residues stand in square brackets, D forms with d. Groups on a side chain read outwards from the residue. Primed or numbered codes have the meaning given here. No end group written: not given here. *: point of attachment. γGlu = O=C(O)[C@H](CCC(=O)[*:2])N[*:1]; αMeF = C[C@](N)(Cc1ccccc1)C(=O)O; αMeK = C[C@](N)(CCCCN)C(=O)O; Lauroyl = CCCCCCCCCCCC(=O)*; αMeS = C[C@](N)(CO)C(=O)O; PEG2′ = not defined here; Aib = CC(C)(N)C(=O)O
Kindly apply the following: T if cAMP INS1e assay EC50, n2 is less than 3 nM, F in every other case.

Could you please tell me whether cAMP INS1e assay EC50, n2 recorded for H[Aib]EGS[αMeF]TSDV[αMeS]SYK([PEG2′-PEG2′-γGlu-Lauroyl])EGEK([PEG2′-PEG2′-γGlu-Lauroyl])A[αMeK]EFIAK([PEG2′-PEG2′-γGlu-Lauroyl])VVEGG-NH2 [SEQ ID NO: 469] is less than 3 nM?
T

Could you please tell me whether cAMP INS1e assay EC50, n2 recorded for H[Aib]EGS[αMeF]TSDV[αMeS]SK([PEG2′-PEG2′-γGlu-Lauroyl])LEGEAA[αMeK]K([PEG2′-PEG2′-γGlu-Lauroyl])FIAK([PEG2′-PEG2′-γGlu-Lauroyl])VVEGG-NH2 [SEQ ID NO: 466] is less than 3 nM?
T

Could you please tell me whether cAMP INS1e assay EC50, n2 recorded for H[Aib]EGS[αMeF]TSDK([PEG2′-PEG2′-γGlu-Lauroyl])SSYLEGEAA[αMeK]K([PEG2′-PEG2′-γGlu-Lauroyl])FIAK([PEG2′-PEG2′-γGlu-Lauroyl])VVEGG-NH2 [SEQ ID NO: 458] is less than 3 nM?
F

Could you please tell me whether cAMP INS1e assay EC50, n2 recorded for H[Aib]EGS[αMeF]TSDV[αMeS]SYK([PEG2′-PEG2′-γGlu-Lauroyl])EGEAA[αMeK]K([PEG2′-PEG2′-γGlu-Lauroyl])FIK([PEG2′-PEG2′-γGlu-Lauroyl])FVVEGG-NH2 [SEQ ID NO: 454] is less than 3 nM?
F

Could you please tell me whether cAMP INS1e assay EC50, n2 recorded for H[Aib]EGS[αMeF]TSDV[αMeS]SYK([PEG2′-PEG2′-γGlu-Lauroyl])EGEAA[αMeK]K([PEG2′-PEG2′-γGlu-Lauroyl])FIAK([PEG2′-PEG2′-γGlu-Lauroyl])VVEGG-NH2 [SEQ ID NO: 470] is less than 3 nM?
F

Could you please tell me whether cAMP INS1e assay EC50, n2 recorded for H[Aib]EGS[αMeF]TSDV[αMeS]SYK([PEG2′-PEG2′-γGlu-Lauroyl])EK([PEG2′-PEG2′-γGlu-Lauroyl])EAA[αMeK]EFIAK([PEG2′-PEG2′-γGlu-Lauroyl])VVEGG-NH2 [SEQ ID NO: 467] is less than 3 nM?
F
